system: HL-60; assay: Compound tested for cytotoxic Activity against HL-60 cell line from promyelocytic leukemia; format: functional, cell-based; details: Homo sapiens
Kindly supply the reported IC50 values for the records listed here.
Answers are plain numbers, in µM.

Reference set (3 entries):
{"columns": ["item-smiles", "readout-units", "measurement"],
 "data": [
  ["C[C@H](COC(=O)N1c2ccccc2[C@@]23O[C@]24CCC[C@@H]3C#C/C=C\\C#C[C@H]14)S(=O)(=O)c1ccccc1", "µM", 1.6],
  ["O=C(OCCS(=O)(=O)c1ccccc1)N1c2ccccc2[C@@]23O[C@]24CCC[C@@H]3C#C/C=C\\C#C[C@H]14", "µM", 0.098],
  ["CC(C)(COC(=O)N1c2ccccc2[C@@]23O[C@]24CCC[C@@H]3C#C/C=C\\C#C[C@H]14)S(=O)(=O)c1ccccc1", "µM", 25]
]}

Here's the next entry for you.
Read the entry `C[C@@H](COC(=O)N1c2ccccc2[C@@]23O[C@]24CCC[C@@H]3C#C/C=C\C#C[C@H]14)S(=O)(=O)c1ccccc1` and write its reported IC50.
0.78
